tgt: T1, recombinant His-tagged human PD-1 (Acro Biosystems) (human, UniProt Q15116 25-167)
T1 construct: His-tagged; also called hPD-1
assay.protocol: SPR Carterra LSA;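 also: antibodies or fusion proteins amine-coupled on an HC30M chip, soluble His-tagged human or cynomolgus PD-1 titrated over them, non-regenerative kinetics, constants fitted from titration curves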
Parameter: pKd. Scope: all listed entries.
// pKd is dimensionless: -log10 of concentration (M)

Consider the reported pKd for these binders:
binder	pKd
OMC476pH10-hIgG4 (antibody, V domains shown) VH: DVQLVESGGGVVRPGGSLRLSCAASGFTFSIYAVSWVRQAPGEGLEWVSHISASGGSTYYADSVKGRFAISRDNSKNTLYLQMNSLRAEDTAVYYCTTNLGSDYWGLGTLVTVSS VL: QSVLTQPPSASGTPGQRVTISCSGSYSDIGTNYVYWYQQLPGTAPKLLIFATDRRPSGVPDRFSGSKSGTSASLAISGLQSEDEADYYCGTWDDSLNVWVFGGGTKLTVLG	7.19
OMC.1.B6-hIgG4 (antibody, V domains shown) VH: EVQLLESGGGLVQPGGSLRLSCAASGFTFSSNYMSWVRQAPGKGLEWVSAISSSGGTIFYADSVKGRFTISRDNSKNTLYLQMNSLRAEDTAVYYCAKHKWNAVYYDGMDVWGQGTTVTVSS VL: QSVLTQPPSASGTPGQRVTISCSGSNSNIGRNLVNWYQQLPGTAPKLLIYTIDQRPSGVPDRFSGSKSGTSASLVISGLQSEDEADYYCAAWDGSLNAWVFGGGTKLTVLG	7.28

Now look at this one.
Ask: Using the record for OMC476pE4-hIgG4 (antibody, V domains shown) VH: DVQLVESGGGVVRPGESLRLSCAASGFTFSTDAMGWVRQAPGEGLEWVSLISGSGYSTYYADSVKGRFTISRDNSKNTLYLQMNSLTAEDTAVYYCAKNSLAFFDYWGLGTLVTVSS VL: QSVLTQPPSASGTPGQRVTISCSGGSSNIGRESVNWYQQLPGTAPKLLIYSTDRRPSGVPDRFSGSKSGTSASLAISGLQSEDEADYYCGTWDNDLNGWVFGGGTKLTVLG , report its pKd.
Reply: 7.96
